Molecular target: Adrenergic receptor alpha-1 (Homo sapiens, UniProt P35348+P25100+P35368)
Assay type: protein assay
// assign True if IC50 falls strictly below 1000 nM, else False (ties count as False)

{"CHEMICAL STRING": "N#Cc1ccc(CCOC(=O)NC2CCN(CCCC(c3ccc(F)cc3)c3ccc(F)cc3)CC2)cc1", "CATEGORY": "True"}
{"CHEMICAL STRING": "O=C(OCc1cc2c(cc1Cl)OCO2)N1CCC(n2c(O)nc3ccccc32)CC1", "CATEGORY": "False"}
{"CHEMICAL STRING": "O=C(CCc1ccc(F)cc1)N1CCN(CCCC(c2ccc(F)cc2)c2ccc(F)cc2)CC1", "CATEGORY": "False"}
{"CHEMICAL STRING": "O=C(OCCc1ccc(F)cc1)N1CCN(CCCC(c2ccc(F)cc2)c2ccc(F)cc2)CC1", "CATEGORY": "False"}
{"CHEMICAL STRING": "O=C(CCCc1ccccc1)N1CCN(CCCC(c2ccc(F)cc2)c2ccc(F)cc2)CC1", "CATEGORY": "False"}
{"CHEMICAL STRING": "N#Cc1ccc(CCOC(=O)N2CCN(CCCC(c3ccc(F)cc3)c3ccc(F)cc3)CC2)cc1", "CATEGORY": "False"}

Values from ChEMBL document CHEMBL1134625
